Assay Comment: modulators of CIT2-GFP expression in yeast, confirmation, S. cerevisiae, GFP fusion, cherry picks, mother/daughter gates (AID 2274)
Conditions: S. cerevisiae CIT2-GFP strain, flow cytometry, 3 h; measured here: mother cell gate; at 10 µM; stronger effect = higher value
Measured Property: GFP response, % of DMSO (%)

Compound	Measured Property	Unit Abbreviation	Val
O=C1CC(Sc2nnc(-c3ccccc3)o2)C(=O)N1c1ccccc1 (stereo not drawn)	GFP response, % of DMSO	%	93.4
O=C1Nc2ccccc2C(=O)C1(Cl)Cc1ccccc1 (stereo not drawn)	GFP response, % of DMSO	%	90.4
Cn1cc(/C=C/c2cc[n+](C)cc2)c2cc(F)ccc21	GFP response, % of DMSO	%	114
CC1(C)CC(=O)C2=C(C1)OC1=C(C(=O)CC(C)(C)C1)C2c1ccc(O)cc1O	GFP response, % of DMSO	%	89.1
O=c1[nH]c(=O)n([C@H]2C[C@H](O)[C@@H](CO)O2)cc1F	GFP response, % of DMSO	%	93.7
CC(C)(C)C1=CC=C(C(C)(C)C)C(=O)C1=O	GFP response, % of DMSO	%	96.8
O=C(Oc1ccnc2cc(Cl)ccc12)N1CCCCCC1	GFP response, % of DMSO	%	89.1
Cc1nnc(NC(=O)c2ccc(S(=O)(=O)N3CCCCCC3)cc2)o1	GFP response, % of DMSO	%	96.8
CCCc1cc(=O)n(-c2nc3ccccc3s2)[nH]1	GFP response, % of DMSO	%	96.8
Cc1ccc(C(=O)c2nocc2C(=O)c2cccs2)cc1	GFP response, % of DMSO	%	80.5
CCOC(=O)c1ccc(NC(=O)c2nc(S(=O)(=O)Cc3ccccc3)ncc2Cl)cc1	GFP response, % of DMSO	%	97.7
C/C(=N/NC(=O)c1ccc(C(C)(C)C)cc1)c1ccccn1	GFP response, % of DMSO	%	98.2
O=c1oc2cc(Oc3c([N+](=O)[O-])cc(C(F)(F)F)cc3[N+](=O)[O-])ccc2c2c1CCCC2	GFP response, % of DMSO	%	94.4
Cc1ccc(N2CCN(C(=O)c3ccccc3)CC2)c(C)c1	GFP response, % of DMSO	%	106
COc1ccc(N2C(=O)C(Cl)=C(N(CCO)Cc3ccccc3)C2=O)cc1	GFP response, % of DMSO	%	99.3
Cc1ccc(/C=N\NC(=O)c2cc(OCC(F)(F)F)ccc2OCC(F)(F)F)cc1	GFP response, % of DMSO	%	106
O=C(Nc1nc(-c2ccc(Cl)s2)cs1)c1cccs1	GFP response, % of DMSO	%	82.6
Brc1cc(Br)c2nc(-c3cccs3)ccc2c1	GFP response, % of DMSO	%	99.3
CS(=O)(=O)c1nc(-c2ccccc2)cc(C(F)(F)F)n1	GFP response, % of DMSO	%	86.9
Cc1cc(C)c2c(c1)/C(=C/C(=O)c1ccc(Br)s1)C(=O)N2	GFP response, % of DMSO	%	94.4
COC(=O)c1cc(S(=O)(=O)Nc2nn(C)c3ccccc23)oc1C	GFP response, % of DMSO	%	99.7
CCN(Cc1ccccc1)S(=O)(=O)c1ccc(C(=O)Nc2nnc(C)o2)cc1	GFP response, % of DMSO	%	101
COc1ccc(S(=O)(=O)NCC(=O)N(CC(=O)NCc2ccco2)Cc2ccc(F)cc2)cc1	GFP response, % of DMSO	%	101
